The entries below come with measured inhibition at 1 µM values attached.
Tested on: TGFβ signal
METHOD NOTES: TGFβ signal inhibitory activity, (SBE)4-Luc reporter in A549 cells (Test Examples 1A and 1B)
Format: cell-based, human
CONDITION SET: Homo sapiens, A549; test compound 1 µM; TGFβ-1 2 ng/ml, 4 hr; Table 1A; read-out: TGFβ inhibition rate, %
Hi! Could you send only the number? It should be in %, unit omitted.

// solved cases for inhibition at 1 µM follow
>>> obs_value("Cc1cc(Oc2ccnc3ccsc23)c(-c2ccccn2)nc1C [Compound 28]")
96
>>> obs_value("Cc1cc(Oc2ccnc3ccc(C(F)(F)F)cc23)c(-c2ccccn2)nc1C [Compound 3]")
79

// next item, inhibition at 1 µM requested
**Q:** Query (molecule): COc1ccc2nccc(Oc3cc(C)c(C)nc3-c3ccccn3)c2c1 [Compound 4] ; field requested: inhibition at 1 µM
**A:** 94

---

System: TGFβ signal
METHOD NOTES: TGFβ signal inhibitory activity, (SBE)4-Luc reporter in A549 cells (Test Examples 1A and 1B)
Assay type: cell-based, human
CONDITION SET: Homo sapiens, A549; test compound 10 µM; Reference Examples, Table 1B; read-out: TGFβ inhibition rate, %
Readings of inhibition at 10 µM for the listed molecules
The answer is to be given in %; state only the numeric part.

Recorded inhibition at 10 µM, per entry:
>>> obs_value("COc1cc2nccc(Oc3ccc(C)cc3-c3ccno3)c2cc1OC")
89
>>> obs_value("COc1cc2nccc(Oc3ccccc3C(=O)OC(C)C)c2cc1OC")
88
>>> obs_value("COc1ccc(Oc2ccnc3cc(OC)c(OC)cc23)c(C(=O)NC(C)C)c1")
92

**Q:** Please give the measured inhibition at 10 µM for this molecule: COc1cc2c(Oc3ccc(C)cc3C(=O)c3ccccc3)ccnc2cc1OCCCCCl
**A:** 89

---

Tested on: TGFβ signal
METHOD NOTES: TGFβ signal inhibitory activity, (SBE)4-Luc reporter in A549 cells (Test Examples 1A and 1B)
Type: cell-based, human
CONDITION SET: Homo sapiens, A549; test compound 3 µM; TGFβ-1 2 ng/ml, 4 hr; Table 1A; read-out: TGFβ inhibition rate, %
ASSAY ENDPOINT: inhibition at 3 µM (%)
# number only, unit % dropped from output

>>> obs_value("Cc1ccc(Oc2ccnc3ccc(OCC(C)(C)C)cc23)c(-c2ncccn2)n1")
90

**Q:** Give the measured inhibition at 3 µM of COc1cc2nccc(Oc3cc4cnccc4nc3-c3ccccc3)c2cc1OC .
**A:** 97

**Q:** Would you mind telling me what inhibition at 3 µM value was observed for Cc1ccc2nccc(Oc3cc(C)c(C)nc3-c3ccccn3)c2c1 ?
**A:** 99

**Q:** Which inhibition at 3 µM is reported for this compound? Cc1cc(Oc2ccnc3ccc(O)cc23)c(-c2ccccn2)nc1C
**A:** 100

**Q:** Would you mind telling me what inhibition at 3 µM value was observed for Cc1cc(Oc2ccnc3cc(C(N)=O)ccc23)c(-c2ccccn2)nc1C ?
**A:** 93

**Q:** I would be grateful if you could share the reported inhibition at 3 µM for COc1cc2nccc(Oc3cc(C)c(C)nc3-c3ccccn3)c2cc1NCCO .
**A:** 99

---

Tested on: TGFβ signal
METHOD NOTES: TGFβ signal inhibitory activity, (SBE)4-Luc reporter in A549 cells (Test Examples 1A and 1B)
Format: cell-based, human
CONDITION SET: Homo sapiens, A549; 3 µM; compounds of Reference Examples (Test Example 1B); read-out: TGFβ inhibition rate, %
ASSAY ENDPOINT: inhibition at 3 µM (%)
Response body: numeric value in %, unit text excluded.

Example entries and their recorded answers appear below.
>>> obs_value("COc1cc2nccc(Oc3cc(C)c(C)nc3-c3cc(C)ccn3)c2cc1OC")
99
>>> obs_value("COc1cc2nccc(Oc3ccc(C)nc3-c3ccncc3)c2cc1OC")
82

Shifting focus to the compound that follows.
**Q:** Any idea what its inhibition at 3 µM is? The compound is COc1cc2nccc(Sc3ccc4ccccc4n3)c2cc1OC
**A:** 2
